- Tested on: HCT-116
- EXPERIMENT DESCRIPTION: Antiproliferative activity against human HCT116 cells after 48 hrs by SRB assay
- COND: HCT-116, 48 h
Provide the recorded IC50 for the entries that follow.
Give bare numbers, in µM.

Here's what some known entries look like.
INSERT INTO assay_data (compound, assayed_target, readout_name, reported_result) VALUES
  ('Brc1ccc(-c2nn(-c3ccccc3)cc2-c2nc3ccccc3n2Cc2ccccc2I)cc1', 'HCT-116', 'IC50', 6.63),
  ('C=CC(C)n1c(-c2cn(-c3ccccc3)nc2-c2ccc(OC)cc2)nc2ccccc21 (stereo not drawn)', 'HCT-116', 'IC50', 7.98);

As a next step, examine the compound that follows.
*Q* Fill in: IC50 of COc1ccc(-c2nn(-c3ccccc3)cc2-c2nc3ccccc3n2Cc2ccccc2Br)cc1 is ___
*A* 7.19
